- Method notes: reversal of MRP1-mediated doxorubicin resistance, pilot screen, H69AR cells, doxorubicin co-treatment (AID 601)
- Test parameters: H69AR cells + 2 uM doxorubicin, CellTiter-Glo, 72 h; at 10 µM; stronger effect = higher value
The source made the active and inactive calls.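 Rule for the calls: active = viability loss from added drug above about 55%, and viability with drug at most 40%, in both replicates (limit read from the data, passing the limit was not always enough); inconclusive = both conditions met in only one replicate; inactive = neither replicate meets both conditions.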
Provide the recorded differential viability (reversal) for the entries that follow.

CCSCCNC(=O)c1cc(-n2cnnc2)ccc1Cl
0.415% (inactive)

Batch: differential viability (reversal) for all items listed.
1. CCn1nnnc1NCc1cccn1C
2. CSCCC(NC(=O)c1ccco1)C(=O)OC(C)C(=O)NC(=O)NC1CCCCC1 (centres undefined)
3. COC(=O)CCC(=O)Nc1cccc(Cl)c1
4. COc1ccc(N2CCN(CCCNC(=O)CC3Oc4ccc(C)cc4NC3=O)CC2)cc1 (centres undefined)
5. COc1ccc(-c2noc(COc3ccc4ccccc4c3Br)n2)cc1OC

Ans.
1: 3.54% (inactive); 2: 16.1% (inactive); 3: -5.69% (inactive); 4: 0.915% (inactive); 5: 5.36% (inactive)

For each listed entry, give its differential viability (reversal).
1. Cc1ccc(NC(=O)Nc2ccc3c(c2)N(C)C(=O)CS3)nc1
2. CCCCn1c(SCC(=O)Nc2ccc(OC)cc2)nc2ccc(N3CCOCC3)cc2c1=O
3. COc1ccccc1OCC(=O)NCC1CCCCC1
4. CCN1C(=O)CC(C(=O)Nc2ccc(F)cc2)SC1=Nc1ccc2c(c1)OCO2 (centres undefined)
5. O=C(Nc1ccccc1)c1cccnc1N1CCOCC1
6. CN1CCN(S(=O)(=O)c2ccc(Sc3nnc(-c4cccs4)n3-c3ccccc3)nc2)CC1

Ans.
1. -8.16% (inactive)
2. 0.605% (inactive)
3. 23.4% (inactive)
4. 6.02% (inactive)
5. 18.2% (inactive)
6. 3.53% (inactive)

List differential viability (reversal) for every entry below, keeping the order given.
1. COc1nc(N2CCOCC2)nc(-n2cccc2)n1
2. Cn1c(=O)c2c(nc(NCc3ccc4c(c3)OCO4)n2Cc2ccccc2F)n(C)c1=O
3. COCCn1c(COc2ccc(Cl)cc2)nnc1SCC(N)=O
4. Cc1ccc(NC(=O)CN2CC(C)SC2=NC2CCCCC2)cc1 (centres undefined)
5. CC1CCCN(C(=O)c2cc(F)c(F)cc2Cl)C1 (centres undefined)
6. c1nnc(NC2=NCCCCC2)s1

Ans.
13.8% (inactive)
-8.01% (inactive)
18.1% (inactive)
0.935% (inactive)
-4.92% (inactive)
2.23% (inactive)

Would you mind giving differential viability (reversal) for every compound in the list below?
1. O=C(NCc1ccco1)C1CCN(C(=O)c2cc3sccc3n2Cc2ccc(F)cc2)CC1
2. COc1ccc(C)cc1NC(=O)c1nc2nc(C)cc(C)n2n1
3. CCOC(=O)c1c(-c2ccc(C)o2)csc1NC(=O)COC(=O)c1cccs1
4. O=C(Nc1ccccc1N1CCOCC1)c1ccc2ccccc2n1
5. Cc1cc(NC(=O)CCCN2C(=O)c3cccnc3C2=O)no1
6. COc1ccc(-n2c(SCC(=O)Nc3ccc(C(=O)O)cc3)nnc2-c2cccs2)cc1

Ans.
["-6.56% (inactive)", "-1.54% (inactive)", "5.23% (inactive)", "-12.4% (inactive)", "5.19% (inactive)", "15.2% (inactive)"]

---

- Method notes: HUVEC growth inhibition – cell-based, human, primary screen (AID 575);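 note: 100% = median of untreated cell wells with 0.1% DMSO on each plate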
- Test parameters: HUVEC proliferation, CellTiter-Glo luminescence, 72 h; at 10 µM; stronger effect = lower value
Quantity name: viability (%)
Numbers only, in %.

CC1=C(C(=O)Nc2ccccc2)C(c2cccs2)C(C#N)=C(SCC#N)N1 (stereo unspecified)
64
COc1ccc(-n2c(COc3cccc(C)c3)nnc2SCC(=O)NCc2ccco2)cc1
84.4
COc1ccc(CCNC(=O)c2cnc3scc(C)n3c2=O)cc1OC
90.4
C/C(=C(\C#N)C(=O)NCCCN1CCOCC1)N(C)C
95.2
O=C(CSc1nnc(-c2c[nH]c3ccccc23)o1)N(Cc1ccccc1)c1ccc(F)cc1
65.9

For the 6 compounds below, give their viability values.
1. COc1ccc(Cc2nc(-c3ccc(NC(=O)c4cccnc4)cc3)no2)cc1
2. O=C(CSc1ncnc2sc3c(c12)CCCCC3)NCc1ccco1
3. CCOc1cc(C2c3c(n[nH]c3C)C(=O)N2c2ccc(Br)cc2)ccc1O (stereo unspecified)
4. Cc1cccc(C)c1NC(=O)CS(=O)CC(=O)NC1CCCc2ccccc21 (stereo unspecified)
5. O=C1N2c3ccccc3CCc3cccc(c32)C1(O)C(F)(F)F (stereo unspecified)
6. O=S(=O)(c1ccc2nc(Cc3cccc(C(F)(F)F)c3)[nH]c2c1)N1CCOCC1

Ans.
1: 123; 2: 41.3; 3: 53.1; 4: 103; 5: 96.4; 6: 67.9
